- recordedConditions: 298.15 K; 101.3 kPa; Liquid
quantityName: speed of sound (m/s)

| compound | quantityName | unitAnnotation | testValue |
| --- | --- | --- | --- |
| CCCCCCCC | speed of sound | m/s | 1173 |
| CCCCCCCCCC | speed of sound | m/s | 1235 |
| CCCCCCCCCCCC | speed of sound | m/s | 1278 |
| CCC(C)O (centres undefined) | speed of sound | m/s | 1212 |

----------
- recordedConditions: 303.15 K; 101.3 kPa; Liquid
quantityName: viscosity (mPa·s)

A. CCCCCCCC [octane]
B. CCCCCCCCCC [decane]
Lookup: Pick one, A or B : lowest reported viscosity. // output: label of the selected item
Found: A

1. CCCCCCCCCCCC [dodecane]
2. CCC(C)O (centres undefined) [butan-2-ol]
Lookup: Which value of viscosity is numerically greater: that of 1 or that of 2 ? // output: label of the selected item
Found: 2
(2: 2.493 mPa·s, 1: 1.219 mPa·s)

----------
- recordedConditions: 303.15 K; 101.3 kPa; Liquid
quantityName: speed of sound (m/s)

| compound | testValue |
| --- | --- |
| CCC(C)O (centres undefined) [butan-2-ol] | 1194 |
| CCCCCCCCCCCC [dodecane] | 1259 |
| CCCCCCCCCC [decane] | 1215 |
| CCCCCCCC [octane] | 1152 |

----------
- recordedConditions: 298.15 K; 101.3 kPa; Liquid
quantityName: mass density (kg/m3)

| compound | unitAnnotation | mass density |
| --- | --- | --- |
| CCCCCCCC | kg/m3 | 698.5 |
| CCCCCCCCCCCC | kg/m3 | 744.9 |
| CCCCCCCCCC | kg/m3 | 726.1 |
| CCC(C)O (centres undefined) | kg/m3 | 802.7 |

----------
- recordedConditions: 298.15 K; 101.3 kPa; Liquid
quantityName: viscosity (mPa·s)

| molecule | viscosity / mPa·s |
| --- | --- |
| CCCCCCCCCC | 0.845 |

A. CCCCCCCC
B. CCCCCCCCCCCC
C. CCC(C)O (centres undefined)
Lookup: Sort the 3 molecules by viscosity; largest first, smallest last. Put the labels in the order asked and list them.
Found: C, B, A
(C: 2.995 mPa·s, B: 1.327 mPa·s, A: 0.506 mPa·s)

----------
- recordedConditions: 293.15 K; 101.3 kPa; Liquid
quantityName: mass density (kg/m3)

| molecule | mass density [kg/m3] |
| --- | --- |
| CCCCCCCCCC [decane] | 729.9 |
| CCCCCCCCCCCC [dodecane] | 748.5 |
| CCC(C)O (centres undefined) [butan-2-ol] | 806.8 |
| CCCCCCCC [octane] | 702.6 |

----------
- recordedConditions: 293.15 K; 101.3 kPa; Liquid
quantityName: viscosity (mPa·s)

// below: answered compounds
| compound | testValue |
| --- | --- |
| CCCCCCCC | 0.538 |
| CCCCCCCCCC | 0.911 |

P. CCCCCCCCCCCC
Q. CCC(C)O (centres undefined)
Lookup: Which value of viscosity is numerically greater: that of P or that of Q ? // output: label of the selected item
Found: Q
